meta.source: patent US20210223237A1

assay: in vitro; details: human, pH 7.4
readout: microsomal CLint at 1 μM (µL/min/mg)

compound-structure-string	observed
Cc1ncc2n1-c1ccc(Cl)cc1C(c1ccccc1F)=NC2	842

====

assay: in vitro; settings: human

compound	fraction unbound at 6 h, 1 μM
CCC(C)n1ncn(-c2ccc(N3CCN(c4ccc(OCC5COC(Cn6cncn6)(c6ccc(Cl)cc6Cl)O5)cc4)CC3)cc2)c1=O (stereo not shown)	0.025

====

test: in vitro; conditions: human, pH 7.4
readout: CLhep predicted at 1 μM

compound	observed
Cc1ncc2n1-c1ccc(Cl)cc1C(c1ccccc1F)=NC2 [Midazolam, midazolam]	9.47 mL/min/kg

====

Target: UGT2B7 (Homo sapiens)
Sequence (P16662 24-529): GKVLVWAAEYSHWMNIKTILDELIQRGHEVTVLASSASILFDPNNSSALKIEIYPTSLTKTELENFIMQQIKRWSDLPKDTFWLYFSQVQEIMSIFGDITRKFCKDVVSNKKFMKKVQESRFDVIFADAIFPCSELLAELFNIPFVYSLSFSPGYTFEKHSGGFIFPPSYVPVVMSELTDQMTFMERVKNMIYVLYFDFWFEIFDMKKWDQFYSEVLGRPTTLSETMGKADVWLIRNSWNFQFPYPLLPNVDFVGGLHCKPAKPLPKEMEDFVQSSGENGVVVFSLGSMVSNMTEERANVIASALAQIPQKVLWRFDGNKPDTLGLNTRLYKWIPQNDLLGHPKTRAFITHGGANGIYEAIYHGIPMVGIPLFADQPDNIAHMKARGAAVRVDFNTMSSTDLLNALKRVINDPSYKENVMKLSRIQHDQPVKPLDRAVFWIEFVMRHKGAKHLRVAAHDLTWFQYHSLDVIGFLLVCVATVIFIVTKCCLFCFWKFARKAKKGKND
Test: in vitro
Conditions: human liver microsomes (suspension), pH 7.8

compound-structure-string	unit-of-measure	microsomal CLint
Cc1cn([C@H]2C[C@H](N=[N+]=[N-])[C@@H](CO)O2)c(=O)[nH]c1=O	µL/min/mg	0.44
